A collection of compounds and their measured inhibition
Experiment: M. tuberculosis H37Rv growth inhibitors, H37Rv strain (AID 1626);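 further: bacteria incubated seven days before Alamar blue readout; 0% = bacteria only wells and 100% = bacteria with antibiotic wells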
Conditions: hits give high values, concentration not given here
Out of some 220,000 compounds screened, about 2,000 (0.91%) were called active. About 2% were inconclusive and are not listed. A selection follows. Entries with a potency or affinity are not part of this list.
Report as a plain number; the unit % is understood.

Consider the following illustrative entries.
> print(dat)
                                 cpd.smiles  units.of.measure  reported.result
1  Cc1[nH]n(-c2ccccc2)c(=O)c1N=Nc1ccc2c(c1)OCCO2                 %            -5.08
2     Cc1[nH]n(-c2ccccc2)c(=O)c1N=Nc1ccccc1                 %             3.96
3                CCOc1nc(C)ccc1-c1noc(CC)n1                 %            -1.19
4   Cc1nc(NC(=O)c2cc(-n3cnnc3)ccc2Cl)ccc1Br                 %             0.92

Could you tell me which inhibition is on file for Cc1cc(Cl)ccc1N(CC(=O)NCc1ccc2c(c1)OCO2)S(C)(=O)=O ?
-3.37

I am curious: what inhibition value has been reported for Cc1ccccc1N=Nc1c(C)[nH]n(-c2ccccc2)c1=O ?
-1.01
